- tested target: Cathepsin S (Homo sapiens)
- Sequence (P25774 whole entry): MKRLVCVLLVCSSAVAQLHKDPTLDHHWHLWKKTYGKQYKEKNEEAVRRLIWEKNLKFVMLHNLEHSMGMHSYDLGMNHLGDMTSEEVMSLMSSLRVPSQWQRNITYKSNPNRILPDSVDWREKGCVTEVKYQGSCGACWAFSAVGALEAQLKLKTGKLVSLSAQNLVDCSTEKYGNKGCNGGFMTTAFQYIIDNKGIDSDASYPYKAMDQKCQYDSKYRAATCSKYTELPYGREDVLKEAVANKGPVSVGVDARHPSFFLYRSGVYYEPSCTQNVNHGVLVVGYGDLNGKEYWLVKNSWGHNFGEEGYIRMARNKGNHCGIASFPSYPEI
experimental readout: IC50 (nM)

I: CCC(NC(=O)[C@@H]1C[C@@H](S(=O)(=O)c2ccccc2)CN1S(C)(=O)=O)C(=O)c1nc2ccccc2o1 (some centres not stated)
II: CCC(NC(=O)[C@@H]1C[C@@H](S(=O)(=O)c2ccccc2)CN1CC(C)=O)C(=O)c1nc2ccccc2o1 (some centres not stated)
III: CC(C)C[C@@H](NC(=O)N1CCOCC1)C(=O)N[C@@H](/C=C/S(=O)(=O)c1ccccc1)CCc1ccccc1
Put the listed items above in order, lowest IC50 first. Your answer should be the labels, listed in the requested order.
III, I, II
(III: 1.9 nM, I: 3.5 nM, II: 45.4 nM)

1: CCC(NC(=O)[C@@H]1C[C@@H](S(=O)(=O)c2ccccc2)CN1C(=O)N1CCCC1)C(=O)c1nc2ccccc2o1 (some centres not stated)
2: CCC(NC(=O)[C@@H]1C[C@@H](S(=O)(=O)c2ccccc2)CN1C(=O)c1cccc(Cl)c1)C(=O)c1nc2ccccc2o1 (some centres not stated)
Which shows the larger IC50 value: 1 or 2 ? Response format: the label of the selected entry.
1
(1: 3.7 nM, 2: 1.1 nM)

* * *

- tested target: Cathepsin B (Homo sapiens, UniProt P07858)
pIC50: −log10 of the molar value.
pIC50 listing for selected compounds.

>>> print(df.to_string())
                                   compound  experimental_readout  meas_value
0  CC[C@H](NC(=O)[C@@H]1C[C@@H](S(=O)(=O)c2ccccc2)CN1C(C)=O)C(=O)c1nc2ccccc2o1                 pIC50      < 5.00
1  CCC(NC(=O)[C@@H]1C[C@@H](S(=O)(=O)c2ccccc2)CN1C(=O)C1CCCCC1)C(=O)c1nc2ccccc2o1 (stereo partly specified)                 pIC50      < 5.00
2  CCC(NC(=O)[C@@H]1C[C@@H](S(=O)(=O)c2ccccc2)CN1C(=O)c1cccc(Cl)c1)C(=O)c1nc2ccccc2o1 (stereo partly specified)                 pIC50      < 6.00
3  CCC(NC(=O)[C@@H]1C[C@@H](S(=O)(=O)c2ccccc2)CN1C(=O)c1ccccc1)C(=O)c1nc2ccccc2o1 (stereo partly specified)                 pIC50      < 5.00
4  CCC(NC(=O)[C@@H]1C[C@@H](S(=O)(=O)c2ccccc2)CN1C(=O)c1ccc(-c2ccccc2)cc1)C(=O)c1nc2ccccc2o1 (stereo partly specified)                 pIC50      < 5.00

Now look at this one.
Field request: pIC50 | item: `CC(C)C[C@@H](NC(=O)N1CCOCC1)C(=O)N[C@@H](/C=C/S(=O)(=O)c1ccccc1)CCc1ccccc1`
8.52

* * *

- experiment notes: Oral bioavailability in Sprague-Dawley rat at 10 mg/kg
- Format: ADME, organism-based
- condition details: in vivo
experimental readout: bioavailability (%)
Numbers only here, please. The scale is %.

Field request: bioavailability | item: `CC[C@H](NC(=O)[C@@H]1C[C@@H](S(=O)(=O)c2ccccc2)CN1C(C)=O)C(=O)c1nc2ccccc2o1`
64.8

* * *

Let's go through some recorded IC50 values for Cathepsin S (Homo sapiens) together.
experimental readout: IC50 (nM)

In [3]: df
Out[3]:
                                   compound  meas_value
0  CCC(NC(=O)[C@@H]1C[C@@H](S(=O)(=O)c2ccccc2)CN1C(=O)c1ccc(Cl)cc1)C(=O)c1nc2ccccc2o1 (some centres undefined)           2

1: CCC(NC(=O)[C@@H]1C[C@@H](S(=O)(=O)c2ccccc2Cl)CN1C(C)=O)C(=O)c1nc2ccccc2o1 (some centres undefined)
2: CCC(NC(=O)[C@@H]1C[C@@H](S(=O)(=O)c2ccccc2)CN1C(=O)CCOC)C(=O)c1nc2ccccc2o1 (some centres undefined)
3: CCC(NC(=O)[C@@H]1C[C@@H](S(=O)(=O)c2ccccc2)CN1)C(=O)c1nc2ccccc2o1 (some centres undefined)
Please put the entries in order of rising IC50. Your answer should be the labels, listed in the requested order.
1, 2, 3
(1: 2.3 nM, 2: 3.3 nM, 3: 156 nM)

* * *

- experiment notes: AUC (0 to 24 hrs) in Sprague-Dawley rat at 5 mg/kg, iv and 10 mg/kg, po
- Type: ADME, organism-based
- condition details: plasma
experimental readout: AUC(0-t) (ng·h/mL)
Numbers only here, please. The scale is ng·h/mL.

Field request: AUC(0-t) | item: `CC[C@H](NC(=O)[C@@H]1C[C@@H](S(=O)(=O)c2ccccc2)CN1C(C)=O)C(=O)c1nc2ccccc2o1`
7250

* * *

- experiment notes: Oral bioavailability in beagle dog at 10 mg/kg
- Type: ADME, organism-based, Canis lupus familiaris
- condition details: in vivo
experimental readout: bioavailability (%)
Numbers only here, please. The scale is %.

Field request: bioavailability | item: `CC[C@H](NC(=O)[C@@H]1C[C@@H](S(=O)(=O)c2ccccc2)CN1C(C)=O)C(=O)c1nc2ccccc2o1`
48.6

* * *

- experiment notes: Half life in Sprague-Dawley rat at 5 mg/kg, iv and 10 mg/kg, po
- Type: ADME, organism-based
- condition details: in vivo
experimental readout: half-life (h)
Numbers only here, please. The scale is h.

Field request: half-life | item: `CC[C@H](NC(=O)[C@@H]1C[C@@H](S(=O)(=O)c2ccccc2)CN1C(C)=O)C(=O)c1nc2ccccc2o1`
2.1

* * *

- experiment notes: Metabolic stability in human liver microsomes assessed as compound remaining at 5 uM after 60 mins
- Format: ADME, Microsome
- condition details: read-out: Stability
experimental readout: remaining at 1 h, 5 µM (%)
Numbers only here, please. The scale is %.

Field request: remaining at 1 h, 5 µM | item: `CC[C@H](NC(=O)[C@@H]1C[C@@H](S(=O)(=O)c2ccccc2)CN1C(C)=O)C(=O)c1nc2ccccc2o1`
70

* * *

- experiment notes: Cmax in ICR mouse at 5 mg/kg, iv and 10 mg/kg, po
- Assay type: ADME, organism-based
- condition details: in vivo
experimental readout: Cmax (ng/mL)
Numbers only here, please. The scale is ng/mL.

Field request: Cmax | item: `CC[C@H](NC(=O)[C@@H]1C[C@@H](S(=O)(=O)c2ccccc2)CN1C(C)=O)C(=O)c1nc2ccccc2o1`
1910

* * *

- tested target: Cytochrome P450 2C19 (Homo sapiens)
- Sequence (P33261 whole entry): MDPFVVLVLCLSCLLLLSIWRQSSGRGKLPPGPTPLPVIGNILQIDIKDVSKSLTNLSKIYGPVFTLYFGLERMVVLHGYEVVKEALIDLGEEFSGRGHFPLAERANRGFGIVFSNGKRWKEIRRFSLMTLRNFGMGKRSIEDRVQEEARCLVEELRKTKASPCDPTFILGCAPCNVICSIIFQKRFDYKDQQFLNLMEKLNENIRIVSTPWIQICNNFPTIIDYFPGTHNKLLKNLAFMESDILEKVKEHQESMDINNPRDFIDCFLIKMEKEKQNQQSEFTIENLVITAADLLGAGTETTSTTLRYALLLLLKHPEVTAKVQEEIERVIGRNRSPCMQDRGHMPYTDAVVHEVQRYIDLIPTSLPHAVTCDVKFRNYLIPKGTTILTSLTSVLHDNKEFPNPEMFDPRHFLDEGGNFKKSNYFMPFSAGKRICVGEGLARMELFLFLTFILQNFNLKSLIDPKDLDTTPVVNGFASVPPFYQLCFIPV
experimental readout: IC50

Field request: IC50 | item: `CC[C@H](NC(=O)[C@@H]1C[C@@H](S(=O)(=O)c2ccccc2)CN1C(C)=O)C(=O)c1nc2ccccc2o1`
> 20 µM

* * *

- tested target: UniProtKB P10635
- Sequence (P10635 whole entry): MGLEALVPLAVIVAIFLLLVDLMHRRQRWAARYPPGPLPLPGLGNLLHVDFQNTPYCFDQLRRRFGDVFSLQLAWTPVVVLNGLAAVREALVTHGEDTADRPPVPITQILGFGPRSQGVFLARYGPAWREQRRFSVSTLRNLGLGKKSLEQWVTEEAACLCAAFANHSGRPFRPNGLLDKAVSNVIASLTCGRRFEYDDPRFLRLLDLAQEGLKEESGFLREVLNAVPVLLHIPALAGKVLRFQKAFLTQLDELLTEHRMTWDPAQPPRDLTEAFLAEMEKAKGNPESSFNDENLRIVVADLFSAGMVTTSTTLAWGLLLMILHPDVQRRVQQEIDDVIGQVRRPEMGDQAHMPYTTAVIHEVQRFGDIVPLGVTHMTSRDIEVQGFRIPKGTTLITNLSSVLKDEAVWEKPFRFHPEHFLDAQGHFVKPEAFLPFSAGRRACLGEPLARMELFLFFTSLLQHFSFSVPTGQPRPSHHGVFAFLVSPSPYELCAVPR
pIC50: −log10 of the molar value.
experimental readout: pIC50

Field request: pIC50 | item: `CC[C@H](NC(=O)[C@@H]1C[C@@H](S(=O)(=O)c2ccccc2)CN1C(C)=O)C(=O)c1nc2ccccc2o1`
< 4.70

* * *

- experiment notes: Cmax in beagle dog at 1 mg/kg, iv and 10 mg/kg, po
- Type: ADME, organism-based, Canis lupus familiaris
- condition details: in vivo
experimental readout: Cmax (ng/mL)
Numbers only here, please. The scale is ng/mL.

Field request: Cmax | item: `CC[C@H](NC(=O)[C@@H]1C[C@@H](S(=O)(=O)c2ccccc2)CN1C(C)=O)C(=O)c1nc2ccccc2o1`
3820
